Target or system Platelet-derived growth factor receptor beta (Homo sapiens, UniProt P09619); metric IC50; compiled from varied reports.
metric: IC50 (µM)

Cc1ccc(Nc2nccc(N(C)c3ccc4[nH]ccc4c3)n2)cc1S(N)(=O)=O; 0.07
CCN(CC)CCN1Cc2[nH]c(/C=C3\C(=O)Nc4ccc(S)cc43)c(C)c2C1=O; 0.0121

[I] C[C@@H]1NC(=O)c2c1c1c3ccccc3n(CCCCN)c1c1[nH]c3ccccc3c21
[II] CCN(CC)CCN1Cc2[nH]c(/C=C3\C(=O)Nc4ccccc43)c(C)c2C1=O
Task item: Please state the entry with greater IC50 among I and II . Answer format: the label of the selected item.
Reply: I
